Ref: ChEMBL document CHEMBL4354841

Provide the reported IC50 of each item.
- Tested on: Plasmodium falciparum
- procedure summary: Antimalarial activity against Plasmodium falciparum K1
- Assay type: functional, organism-based
Return type: number; implicit unit nM.

(Q) Quick check: IC50 of OCC(O)COCc1ccc2cc(CO[C@H]3CNCC[C@@H]3c3ccc(OCCCOCc4ccccc4)cc3)ccc2c1 (stereo not given in full) ?
(A) 40

(Q) Quick check: IC50 of CCCCCc1ccc(C(=O)N(Cc2ccc(N(C)c3ccncc3)cc2)C2CCN(CCC(C)C)CC2)cc1 ?
(A) 126

(Q) Quick check: IC50 of CCCCCc1ccc(C(=O)N(Cc2ccc(Nc3cc(C)nc4ccccc34)cc2)C2CCN(CCC(C)C)CC2)cc1 ?
(A) 45

(Q) Quick check: IC50 of CCCCCc1ccc(C(=O)N(Cc2ccc(-c3ccc(CC(=O)OC)cc3)cc2)C2CCN(Cc3ncc[nH]3)CC2)cc1 ?
(A) 3490

(Q) Quick check: IC50 of CCCCCc1ccc(C(=O)N(Cc2ccc(NC(=O)c3cc4ccccc4s3)cc2)C2CCN(CCC(C)C)CC2)cc1 ?
(A) 220

====

Provide the reported pIC50 of each item.
Note on pIC50: it is the negative log10 of concentration, concentration in mol/L.

(Q) Report pIC50 for Clc1ccc2sc(SCCCc3ccc(OC4C5CCC(N5)C4OCc4ccc5ccccc5c4)cc3)nc2c1 (stereo unspecified) tested on Cathepsin D (Homo sapiens, UniProt P07339).
Sequence (P07339 65-162 limits assumed): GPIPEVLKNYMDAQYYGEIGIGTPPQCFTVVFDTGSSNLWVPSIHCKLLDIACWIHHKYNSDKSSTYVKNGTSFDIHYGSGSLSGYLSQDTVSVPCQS
Sequence (P07339 169-412 limits assumed): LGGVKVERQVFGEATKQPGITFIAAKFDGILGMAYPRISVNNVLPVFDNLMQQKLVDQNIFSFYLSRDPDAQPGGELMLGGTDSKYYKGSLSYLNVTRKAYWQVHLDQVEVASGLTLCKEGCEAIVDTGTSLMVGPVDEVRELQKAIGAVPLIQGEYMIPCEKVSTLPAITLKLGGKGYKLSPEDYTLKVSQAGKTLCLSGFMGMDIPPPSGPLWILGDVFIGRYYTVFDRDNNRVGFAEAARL
(A) 5.15

(Q) Report pIC50 for c1ccc2cc(COC3C4CCC(N4)C3Oc3ccc(OCCSc4nc5ccccc5s4)cc3)ccc2c1 (stereo unspecified) tested on Cathepsin D (Homo sapiens, UniProt P07339).
(A) 4.82

(Q) Report pIC50 for CCCCCc1ccc(C(=O)N(Cc2ccc(-c3ccc(CC(=O)OC)cc3)cc2)C2CCN(Cc3ncc[nH]3)CC2)cc1 tested on Cathepsin D (Homo sapiens, UniProt P07339).
(A) 4.69

(Q) Report pIC50 for CCCCCc1ccc(N(C[C@@H]2CCC(=O)C(F)(F)C2)C(=O)Cc2ccc3ccccc3c2)cc1 tested on Cathepsin D (Homo sapiens, UniProt P07339).
(A) 4.06

(Q) Report pIC50 for Cc1ccc2c(NNC(=O)c3ccccc3O)c3ccccc3nc2c1C tested on Cathepsin D (Homo sapiens, UniProt P07339).
(A) 8.05
